Tested on: MDA-MB-435 melanoma
Test: NCI-60 one-dose screen, 48 h
Details: 10 µM
Compounds without any hit were thinned out: in the full panel of roughly 83,000, 20% have a hit. Active and inactive are the calls of the source. How the source made its calls: active means growth percent below 10; inactive means the rest.
Tick one outcome: Y for active, N for inactive

Data request: Kindly provide the recorded test outcome for the following molecule: "Nc1c(C(=O)NC2CCCCC2)sc2nc3c(cc12)C(=O)CCC3"
Data returned: N

Next:
Data request: Kindly provide the recorded test outcome for the following molecule: NC(=O)C12C(=O)NC(=O)C1(C(=O)O)C21CCCC1 (configuration not stated)
Data returned: N

Data request: Kindly provide the recorded test outcome for the following molecule: CC1=CC2OC34COC3CC(OC(=O)C(F)(F)F)C4(C)C2(C)CC1 (configuration not stated)
Data returned: N

Data request: Kindly provide the recorded test outcome for the following molecule: "CC(=O)O[C@H]1CC[C@@]2(C)[C@@H](CC[C@@H]3[C@@H]2CC[C@]2(C)C=C(C=O)C[C@@H]32)C1"
Data returned: N

Data origin: PubChem BioAssay (NCI)
